# assayed-system: UniProt:P27338
# method-description: MAO-B enzyme inhibition (benzylamine substrate, 250 nm)
# protocol-conditions: read-out: Residual Activity at 10 µM (%) MAO-B
observable: remaining activity at 10 µM
# include the unit after the value

Worked cases, answers included:
# value lookup — system UniProt:P27338, readout remaining activity at 10 µM, item COc1ccc(/C=C/C(=O)c2ccc(SC)cc2)cc1 [TM3]
6.9%

How about this compound: CSc1ccc(C(=O)/C=C/c2ccc(O)cc2)cc1 [TM2]
-5.7%

How about this compound: CSc1ccc(C(=O)/C=C/c2ccc(N(C)C)cc2)cc1 [TM5]
1.6%

How about this compound: CCc1ccc(/C=C/C(=O)c2ccc(SC)cc2)cc1 [TM6]
-9.5%

How about this compound: CSc1ccc(C(=O)/C=C/c2ccc(C(F)(F)F)cc2)cc1 [TM11]
7.4%

Quick batch: remaining activity at 10 µM for everything below.
1. CSc1ccc(C(=O)/C=C/c2ccc(C)cc2)cc1 [TM4]
2. CSc1ccc(C(=O)/C=C/c2ccc(F)cc2)cc1 [TM10]
3. CSc1ccc(C(=O)/C=C/c2ccc(Cl)cc2)cc1 [TM8]
4. CSc1ccc(C(=O)/C=C/c2ccc(Br)cc2)cc1 [TM9]

14.7%
-0.4%
4.1%
7.5%

Quick batch: remaining activity at 10 µM for everything below.
1. CSc1ccc(C(=O)/C=C/c2ccc([N+](=O)[O-])cc2)cc1 [TM7]
2. CSc1ccc(C(=O)/C=C/c2ccccc2)cc1 [TM1]

6%
13.2%

###

# assayed-system: MAO-B (Homo sapiens, UniProt P27338)
# Sequence (P27338 whole entry): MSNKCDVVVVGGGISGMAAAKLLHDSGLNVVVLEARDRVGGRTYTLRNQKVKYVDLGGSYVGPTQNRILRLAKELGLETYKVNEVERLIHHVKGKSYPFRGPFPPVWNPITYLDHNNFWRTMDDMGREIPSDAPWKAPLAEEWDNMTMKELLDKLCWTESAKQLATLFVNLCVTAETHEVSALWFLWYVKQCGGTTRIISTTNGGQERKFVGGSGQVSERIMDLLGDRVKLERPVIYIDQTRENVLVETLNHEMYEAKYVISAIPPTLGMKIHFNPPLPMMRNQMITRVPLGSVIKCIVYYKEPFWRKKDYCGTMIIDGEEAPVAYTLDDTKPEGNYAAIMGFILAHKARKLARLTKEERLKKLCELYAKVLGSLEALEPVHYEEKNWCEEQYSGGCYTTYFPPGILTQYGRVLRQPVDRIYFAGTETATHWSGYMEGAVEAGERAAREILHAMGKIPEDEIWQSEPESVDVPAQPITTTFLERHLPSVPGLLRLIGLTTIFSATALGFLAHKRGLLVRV
# method-description: MAO-B enzyme inhibition (benzylamine substrate, 250 nm)
# protocol-conditions: IC50(hMAO-A) divided by IC50(hMAO-B)
Task for the reader: assign each of the following compounds its reported SI (hMAO-B selectivity index).

Worked cases, answers included:
Query (compound): CSc1ccc(C(=O)/C=C/c2ccc(O)cc2)cc1 ; field requested: SI (hMAO-B selectivity index)
354.8

How about this compound: COc1ccc(/C=C/C(=O)c2ccc(SC)cc2)cc1
100.2

Quick batch: SI (hMAO-B selectivity index) for everything below.
1. CSc1ccc(C(=O)/C=C/c2ccc(Br)cc2)cc1
2. CSc1ccc(C(=O)/C=C/c2ccc(C)cc2)cc1
3. CSc1ccc(C(=O)/C=C/c2ccc(N(C)C)cc2)cc1
4. CSc1ccc(C(=O)/C=C/c2ccc(C(F)(F)F)cc2)cc1
5. CCc1ccc(/C=C/C(=O)c2ccc(SC)cc2)cc1
6. CSc1ccc(C(=O)/C=C/c2ccc(F)cc2)cc1

[381.8, 206.9, 49.3, 311.1, 51.6, 526.9]

###

# Test system: Vero cells
# method-description: Cytotoxicity by MTT assay
# Format: cell-based, African Green Monkey
# protocol-conditions: Chlorocebus sabaeus, Vero, 48 h, MTT assay; converted from µg/mL; read-out: IC50 for Vero cell viability
Task for the reader: assign each of the following compounds its reported IC50.

Query (compound): CSc1ccc(C(=O)/C=C/c2ccc(Cl)cc2)cc1 ; field requested: IC50
402 µM

Attention now turns to another entry.
Query (compound): CSc1ccc(C(=O)/C=C/c2ccccc2)cc1 ; field requested: IC50
948 µM

###

Task for the reader: assign each of the following molecules its reported IC50.
# assayed-system: recombinant human MAO-A (Homo sapiens, UniProt P21397)
# Sequence (P21397 whole entry): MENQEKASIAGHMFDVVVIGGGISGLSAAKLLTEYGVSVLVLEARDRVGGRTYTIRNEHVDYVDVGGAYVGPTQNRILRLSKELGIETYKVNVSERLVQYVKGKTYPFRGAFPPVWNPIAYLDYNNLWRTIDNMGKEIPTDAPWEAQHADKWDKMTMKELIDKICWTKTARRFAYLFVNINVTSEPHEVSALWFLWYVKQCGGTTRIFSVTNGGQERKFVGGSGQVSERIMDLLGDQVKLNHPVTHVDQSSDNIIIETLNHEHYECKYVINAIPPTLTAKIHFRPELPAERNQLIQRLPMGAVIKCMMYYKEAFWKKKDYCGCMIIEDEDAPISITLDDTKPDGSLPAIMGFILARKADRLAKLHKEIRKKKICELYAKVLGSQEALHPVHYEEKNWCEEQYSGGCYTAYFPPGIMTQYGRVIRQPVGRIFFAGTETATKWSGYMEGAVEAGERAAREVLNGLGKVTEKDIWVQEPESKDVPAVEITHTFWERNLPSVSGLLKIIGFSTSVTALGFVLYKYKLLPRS
# method-description: MAO-A enzyme inhibition (kynuramine substrate, 316 nm)
One number for each entry, in µM.

Query (molecule): CSc1ccc(C(=O)/C=C/c2ccc(N(C)C)cc2)cc1 [TM5] ; field requested: IC50
5.91

How about this molecule: COc1ccc(/C=C/C(=O)c2ccc(SC)cc2)cc1 [TM3]
8.82

How about this molecule: CSc1ccc(C(=O)/C=C/c2ccc(F)cc2)cc1 [TM10]
13.7

How about this molecule: CSc1ccc(C(=O)/C=C/c2ccc(O)cc2)cc1 [TM2]
7.45

How about this molecule: CSc1ccc(C(=O)/C=C/c2ccc([N+](=O)[O-])cc2)cc1 [TM7]
30

How about this molecule: CSc1ccc(C(=O)/C=C/c2ccc(Cl)cc2)cc1 [TM8]
48.6

How about this molecule: CSc1ccc(C(=O)/C=C/c2ccc(C(F)(F)F)cc2)cc1 [TM11]
25.2

How about this molecule: CSc1ccc(C(=O)/C=C/c2ccc(C)cc2)cc1 [TM4]
12

How about this molecule: CSc1ccc(C(=O)/C=C/c2ccccc2)cc1 [TM1]
13.8

How about this molecule: CCc1ccc(/C=C/C(=O)c2ccc(SC)cc2)cc1 [TM6]
6.71

Attention now turns to another entry.
Query (molecule): CSc1ccc(C(=O)/C=C/c2ccc(Br)cc2)cc1 [TM9] ; field requested: IC50
33.6

From: paper PMC8623647
